assay: Dissolution, USP dissolution apparatus 2, 900 mL 0.0033 N hydrochloric acid, 0 rpm, 37° C.; format: physicochemical; conditions: pH modulating agent: Bicarbonate; 30 min (Table 33)
Structures can show the parent of a compound that is named as a salt.
% drug dissolved in 900 mL 0.0033 N HCl at 0 rpm listing for selected compounds.
READOUT KIND: % drug dissolved in 900 mL 0.0033 N HCl at 0 rpm (%)

COMPOUND	MEASUREMENT
O=C1Nc2ccc(Cl)cc2C(c2ccccc2Cl)=NC1O (stereo not shown)	11
CCN(CC)CCNC(=O)c1cc(Cl)c(N)cc1OC [Metoclopramide hydrochloride]	46
Cc1nnc2n1-c1ccc(Cl)cc1C(c1ccccc1)=NC2	4
CN(C)C(=O)C(CCN1CCC(O)(c2ccc(Cl)cc2)CC1)(c1ccccc1)c1ccccc1 [Loperamide hydrochloride]	101

###

experiment: physchem; conditions: water
Where a name gives a salt, the structure may show the parent alone.

COMPOUND	solubility
COc1cccc(C2(O)CCCCC2CN(C)C)c1 (stereo not shown) [Tramadol hydrochloride]	~30 mg/mL

###

% dissolved in 900 mL 0.0033 N HCl listing for selected compounds.
assay: Dissolution, USP dissolution apparatus 2, 900 mL 0.0033 N hydrochloric acid, 0 rpm, 37° C.; type: physicochemical; conditions: basic and amphoteric drugs in formulations according to the invention (Table 32); 30 minutes; 0 rpm
Counter-ions that a name gives are not always drawn.
READOUT KIND: % dissolved in 900 mL 0.0033 N HCl (%)

COMPOUND	MEASUREMENT UNIT	MEASUREMENT
CN(C)C(=O)C(CCN1CCC(O)(c2ccc(Cl)cc2)CC1)(c1ccccc1)c1ccccc1 [Loperamide hydrochloride]	%	95
O=C1Nc2ccc(Cl)cc2C(c2ccccc2Cl)=NC1O (centres unmarked)	%	99
CN1CCC[C@@H]1Cc1c[nH]c2ccc(CCS(=O)(=O)c3ccccc3)cc12 [Eletriptan hydrochloride, Eletriptan hydrobromide]	%	100
CCN(CC)CCNC(=O)c1cc(Cl)c(N)cc1OC [Metoclopramide hydrochloride]	%	91
Cc1nnc2n1-c1ccc(Cl)cc1C(c1ccccc1)=NC2	%	63

###

assay: physchem
Where a name gives a salt, the structure may show the parent alone.
READOUT KIND: solubility

COMPOUND	MEASUREMENT
COc1cccc(C2(O)CCCCC2CN(C)C)c1 (stereo not shown) [Tramadol hydrochloride]	~30 mg/mL

###

test: Solubility in water; details: water
solubility listing for selected molecules.
READOUT KIND: solubility (µg/mL)

MOLECULE	MEASUREMENT
O=C(O)Cc1ccccc1Nc1c(Cl)cccc1Cl [Diclofenac potassium]	10000
Cc1ccc(C)c(OCCCC(C)(C)C(=O)O)c1 [Gemfibrozil]	29
CC(C)Cc1ccc(C(C)C(=O)O)cc1 (centres unmarked) [Ibuprofen]	40
Cc1ccc(-c2cc(C(F)(F)F)nn2-c2ccc(S(N)(=O)=O)cc2)cc1 [Celecoxib]	3.46

###

% dissolved in 900 mL 0.0033 N HCl listing for selected molecules.
experiment: Dissolution, USP dissolution apparatus 2, 900 mL 0.0033 N hydrochloric acid, 30 rpm, 37° C.; type: physicochemical; conditions: basic and amphoteric drugs in formulations according to the invention (Table 32); 15 minutes; 30 rpm
Where a name gives a salt, the structure may show the parent alone.

MOLECULE	% dissolved in 900 mL 0.0033 N HCl / %
CN1CCC[C@@H]1Cc1c[nH]c2ccc(CCS(=O)(=O)c3ccccc3)cc12 [Eletriptan hydrochloride, Eletriptan hydrobromide]	97
Cc1nnc2n1-c1ccc(Cl)cc1C(c1ccccc1)=NC2 [Alprazolam]	77
O=C1Nc2ccc(Cl)cc2C(c2ccccc2Cl)=NC1O (stereo not shown) [Lorazepam]	96
Cc1ccc(-c2nc3ccc(C)cn3c2CC(=O)N(C)C)cc1 [Zolpidem tartrate]	97
